# System tested: CYP2B6 (Homo sapiens, UniProt P20813)
# Sequence (P20813 1-491): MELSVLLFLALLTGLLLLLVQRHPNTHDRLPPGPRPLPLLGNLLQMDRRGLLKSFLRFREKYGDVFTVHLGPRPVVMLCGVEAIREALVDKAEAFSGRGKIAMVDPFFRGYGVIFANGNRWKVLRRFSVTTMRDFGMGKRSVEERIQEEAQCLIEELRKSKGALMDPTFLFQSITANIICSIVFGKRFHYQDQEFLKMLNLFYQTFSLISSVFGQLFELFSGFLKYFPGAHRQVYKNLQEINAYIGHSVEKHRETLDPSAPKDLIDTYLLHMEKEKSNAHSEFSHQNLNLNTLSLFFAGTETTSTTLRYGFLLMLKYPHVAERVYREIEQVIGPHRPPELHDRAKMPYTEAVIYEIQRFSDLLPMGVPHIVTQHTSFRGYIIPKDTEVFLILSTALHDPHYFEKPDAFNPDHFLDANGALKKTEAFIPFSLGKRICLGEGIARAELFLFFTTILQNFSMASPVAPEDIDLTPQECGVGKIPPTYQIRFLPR
# Protocol notes: Vivid CYP2B6 Blue fluorescence inhibition assay with recombinant baculosomes
# Format: biochemical
# Set-up: CYP2B6-containing baculosomes
// IC50 lookup, one value per entry
Measured endpoint: IC50 (µM)

CC/C=C\C/C=C\C/C=C\C/C=C\C/C=C\C/C=C\CCC(=O)O [DHA, docosahexaenoic acid]    2.4
CCCCC/C=C\C/C=C\C/C=C\C/C=C\CCCC(=O)O [AA, arachidonic acid]    1.51
CCCCC/C=C\C/C=C\CCCCCCCC(=O)O [LA, linoleic acid]    2.9

###

# System tested: CYP2B6 (Homo sapiens, UniProt P20813)
# Sequence (P20813 1-491): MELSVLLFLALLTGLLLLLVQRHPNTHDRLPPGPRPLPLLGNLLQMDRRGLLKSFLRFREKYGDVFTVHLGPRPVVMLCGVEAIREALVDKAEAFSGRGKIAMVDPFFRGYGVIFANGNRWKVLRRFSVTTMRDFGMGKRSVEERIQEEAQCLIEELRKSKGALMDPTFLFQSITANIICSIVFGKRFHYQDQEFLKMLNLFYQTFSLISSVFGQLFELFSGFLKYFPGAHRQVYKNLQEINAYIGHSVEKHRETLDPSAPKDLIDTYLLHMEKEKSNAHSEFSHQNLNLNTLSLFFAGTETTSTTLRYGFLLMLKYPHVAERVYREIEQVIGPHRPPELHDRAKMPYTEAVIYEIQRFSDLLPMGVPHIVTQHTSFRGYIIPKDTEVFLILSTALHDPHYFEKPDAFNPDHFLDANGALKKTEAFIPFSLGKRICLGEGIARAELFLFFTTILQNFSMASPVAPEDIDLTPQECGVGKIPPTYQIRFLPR
# Protocol notes: biochemical
Measured endpoint: IC50 (µM)

CC/C=C\C/C=C\C/C=C\CCCCCCCC(=O)O    4.48
